Data credit: patent US11214803B2

Kindly state Yap1 mRNA, % UTC for each of the entries shown.
Tested on: Yap1 mRNA
EXPERIMENT: Dose-dependent inhibition of human Yap1 in A-431 cells (Example 6, 5,000 cells per well, RTS4814)
Format: cell-based
PARTICULARS: Table 55; 1333 nM, free uptake, A-431 cells 5,000 cells per well, 48 hours, RTS4814
Strand notation (5' to 3'): a small letter for the sugar, then the base; units joined by * are phosphorothioate-linked, units joined directly phosphodiester-linked; [ ] holds rarer units or linkages, { } end groups; capitals alone tell only the bases. k = constrained ethyl (cEt); [5mC] = 5-methylcytosine; d = 2'-deoxy (DNA)
One number for each entry, in % UTC.

Example substances with recorded Yap1 mRNA, % UTC:
| SUBSTANCE | EXPERIMENTAL RESULT |
| --- | --- |
| 716503 (antisense kT*kT*kA*dT*dT*dA*dT*dG*dA*dG*dT*dG*dA*kT*k[5mC]*kA) [compound 716503] | 67 |
| 716548 (antisense kG*kA*kG*dT*dT*dT*d[5mC]*dA*dA*d[5mC]*dA*d[5mC]*dT*kG*kA*kT) [compound 716548] | 79 |

Hi team, please reply with Yap1 mRNA, % UTC for each item in this list.
1. 716501 (antisense kG*k[5mC]*kA*d[5mC]*dT*dG*dA*dA*dA*dG*dT*dA*d[5mC]*kT*kT*kA) [compound 716501]
2. 716407 (antisense k[5mC]*kT*kT*dA*dG*dT*d[5mC]*d[5mC]*dA*d[5mC]*dT*dG*dT*k[5mC]*kT*kG) [compound 716407]

Response given:
[66, 72]

---

System: Yap1 mRNA
EXPERIMENT: Yap1 mRNA in SCC25 cells, RNA analysis (Example 25)
Assay type: cell-based, human
PARTICULARS: 0.2 μM, free uptake, 48 hours, RTS4814, normalized to actin-beta
REPORTED ENDPOINT: Yap1 mRNA, % UTC (% UTC)
Give bare numbers, in % UTC.

| SUBSTANCE | ENDPOINT UNIT | Yap1 mRNA, % UTC |
| --- | --- | --- |
| 1197270 (TTAAAGTGTATGTCAG; cEt gapmer with 2'-OMe nucleoside, phosphorothioate, further chemistry not given here) [compound 1197270] | % UTC | 24 |
| CGCCGATAAGGTACAC (cEt gapmer, phosphorothioate backbone, further chemistry not given here) [ION 792169, reference compound] | % UTC | 89 |
| 1198440 (AAGTGTATGTCAGAAG; cEt, 2'-MOE, 5-methylcytosine, phosphorothioate modifications, further chemistry not given here) [compound 1198440] | % UTC | 14 |
| 1198439 (AGTGTATGTCAGAAGA; sugar, 5-methylcytosine, phosphorothioate modifications, further chemistry not given here) [compound 1198439] | % UTC | 12 |

Next up:
Challenge: Quick one: Yap1 mRNA, % UTC for 1198872 (TGTATGTCAGAAGAGT; chemically modified gapmer, further chemistry not given here) [compound 1198872] ?
Response given: 22

---

System: Yap1 mRNA
EXPERIMENT: Dose-dependent inhibition of human Yap1 in SNU-449 cells (Example 9, RTS36584)
Format: cell-based
PARTICULARS: 2000.00 nM, free uptake, approximately 48 hours
Method: Modified oligonucleotides described in the studies above were tested at various doses in SNU-449 cells. […] After approximately 48 hours, Yap1 mRNA levels were measured as previously described using the Human Yap1 primer-probe set RTS36584. Yap1 mRNA levels were normalized to total RNA content, as measured by RIBOGREEN®. […] IC50s were calculated using a linear regression on a log/linear plot of the data in excel.
Strand notation (5' to 3'): a small letter for the sugar, then the base; units joined by * are phosphorothioate-linked, units joined directly phosphodiester-linked; [ ] holds rarer units or linkages, { } end groups; capitals alone tell only the bases. e = 2'-O-(2-methoxyethyl) (MOE); k = constrained ethyl (cEt); [5mC] = 5-methylcytosine; d = 2'-deoxy (DNA); m = 2'-O-methyl
REPORTED ENDPOINT: % UTC (Yap1 mRNA) (% UTC)
Answers are plain numbers, in % UTC.

Example substances with recorded % UTC (Yap1 mRNA):
| SUBSTANCE | REPORTED ENDPOINT | EXPERIMENTAL RESULT |
| --- | --- | --- |
| 1198570 (kG*k[5mC]*kA*d[5mC]*dT*dT*dT*dT*dA*d[5mC]*dA*dT*kT*kA*kG*eG) [compound 1198570] | % UTC (Yap1 mRNA) | 9 |
| 1197176 (kT*kG*kT*d[5mC]*dT*d[5mC]*dA*dT*dG*d[5mC]*d[5mC]*dT*dT*kA*kT*kA; antisense) [compound 1197176] | % UTC (Yap1 mRNA) | 6 |
| 1200860 (kT*kA*kA*dA*dG*mU*dG*dT*dA*dT*dG*dT*d[5mC]*kA*kG*kA; antisense) [compound 1200860] | % UTC (Yap1 mRNA) | 5 |
| 1198623 (CTAAGTAAGGTTTCCC; modified gapmer, further chemistry not given here) [compound 1198623] | % UTC (Yap1 mRNA) | 1 |
| 1198358 (kT*kT*kT*dA*dA*dA*dG*dT*dG*dT*dA*dT*kG*eT*k[5mC]*eA; antisense) [compound 1198358] | % UTC (Yap1 mRNA) | 8 |

Next up:
Challenge: Query the reported % UTC (Yap1 mRNA) for Yap1 mRNA; item: 1200861 (kT*kT*kA*dA*dA*mG*dT*dG*dT*dA*dT*dG*dT*k[5mC]*kA*kG; antisense) [compound 1200861]
Response given: 4
